- systemTested: recombinant human VEGF (hVEGF-165) (human) (UniProt P15692)
- testSummary: Proteon SPR estimate, mAb-dAb in transfection supernatant
Entries and their measured pKd follow.
# reply with the number alone; pKd is -log10 of concentration in mol/L

Worked cases, answers included:
binder: DT02-K-044-088 in Pascolizumab-(GSTVAAPS)3-T mAb-dAb format (bispecific antibody, part only; not given: pascolizumab chains and linker, not shown: another chain or arm of the molecule; large carriers; small tags and cut ends) dAb: DIQMTQSPSSLSASVGDRVTITCRASQWIGPELNWYQQKPGKAPKLLIYHGSILQSGVPSRFSGSGSGTDFTLTISSLQPEDFATYYCQQYMYYPHTFGQGTKVEIKR
pKd: 10.28

binder: DT02-K-044-090 in Pascolizumab-(GSTVAAPS)3-T mAb-dAb format (bispecific antibody, part only; not given: pascolizumab chains and linker, not shown: another chain or arm of the molecule; large carriers; small tags and cut ends) dAb: DIQMTQSPSSLSASVGDRVTITCRASQWIGPELQWYQQKPGKAPKLLIYHGSILQSGVPSRFSGSGSGTDFTLTISSLQPEDFATYYCQQYMYYPHTFGQGTKVEIKR
pKd: 10.70

binder: DT02-K-044-230 in Pascolizumab-(GSTVAAPS)3-T mAb-dAb format (bispecific antibody, part only; not given: pascolizumab chains and linker, not shown: another chain or arm of the molecule; small tags and cut ends) dAb: DIQMTQSPSSLSASVGDRVTITCRASQWIGPELSWYQQKPGKAPKLLIYHGSILQSGVPSRFSGSGSGTDFTLTISSLQPEDFATYYCQQYMYYPCTFGQGTKVEIKR
pKd: 10.64

Enquiry: Bench note: what pKd did DT02-K-044-092 in Pascolizumab-(GSTVAAPS)3-T mAb-dAb format (bispecific antibody, part only; not given: pascolizumab chains and linker, not shown: another chain or arm of the molecule; large carriers; small tags and cut ends) dAb: DIQMTQSPSSLSASVGDRVTITCRASQWIGPELTWYQQKPGKAPKLLIYHGSILQSGVPSRFSGSGSGTDFTLTISSLQPEDFATYYCQQYMYYPHTFGQGTKVEIKR show?
Return: 11.52

Enquiry: Quick one: DT02-K-044-093 in Pascolizumab-(GSTVAAPS)3-T mAb-dAb format (bispecific antibody, part only; not given: Pascolizumab chains and linker, not shown: another chain or arm of the molecule; large carriers; small tags and cut ends) dAb: DIQMTQSPSSLSASVGDRVTITCRASQWIGPELVWYQQKPGKAPKLLIYHGSILQSGVPSRFSGSGSGTDFTLTISSLQPEDFATYYCQQYMYYPHTFGQGTKVEIKR
Return: 10.47

Enquiry: Quick one: DT02-K-044-083 in Pascolizumab-(GSTVAAPS)3-T mAb-dAb format (bispecific antibody, part only; not given: pascolizumab heavy and light chains, not shown: another chain or arm of the molecule; small tags and cut ends) dAb: DIQMTQSPSSLSASVGDRVTITCRASQWIGPELHWYQQKPGKAPKLLIYHGSILQSGVPSRFSGSGSGTDFTLTISSLQPEDFATYYCQQYMYYPHTFGQGTKVEIKR
Return: 10.31

Enquiry: Quick one: DT02-K-044-240 in Pascolizumab-(GSTVAAPS)3-T mAb-dAb format (bispecific antibody, part only; not given: pascolizumab chains and linker, not shown: another chain or arm of the molecule; large carriers; small tags and cut ends) dAb: DIQMTQSPSSLSASVGDRVTITCRASQWIGPELSWYQQKPGKAPKLLIYHGSILQSGVPSRFSGSGSGTDFTLTISSLQPEDFATYYCQQYMYYPPTFGQGTKVEIKR
Return: 10.37

Enquiry: Quick one: DT02-K-044-077 in Pascolizumab-(GSTVAAPS)3-T mAb-dAb format (bispecific antibody, part only; not given: Pascolizumab chains and linker, not shown: another chain or arm of the molecule; small tags and cut ends) dAb: DIQMTQSPSSLSASVGDRVTITCRASQWIGPELAWYQQKPGKAPKLLIYHGSILQSGVPSRFSGSGSGTDFTLTISSLQPEDFATYYCQQYMYYPHTFGQGTKVEIKR
Return: 10.40
